# MIC listing for each entry below
System: Candida albicans
method.summary: Antifungal activity against Candida albicans ATCC 64124 assessed as fungal growth inhibition by double dilution method
Assay type: functional
Provide the reading as a plain figure in µg/mL.

Solved entries:
COc1ccc(NNC(=O)c2ccccn2)cc1; 0.98
O=C(NNc1cccc(Cl)c1)c1ccccn1; 0.98
O=C(NNc1cccc(F)c1)c1cnccn1; 1.95

Notebook: COc1cccc(NNC(=O)c2ccccn2)c1 , MIC read as 0.98

Query O=C(NNc1ccc(F)cc1F)c1ccccn1 yields MIC of 1.95

Per the record, O=C(NNc1ccc(F)cc1)c1ccccn1 has MIC of 0.98

====

System: Candida albicans
method.summary: Antifungal activity against Candida albicans ATCC 64124 assessed as fungal growth inhibition by double dilution method
Assay type: functional
property.label: MIC
Kindly report the value followed by its unit.

Examples with answers:
O=C(NNc1ccc(F)cc1)c1cccc(F)n1; 0.98 µg/mL
COc1cccc(NNC(=O)c2ccc(F)cn2)c1; 0.98 µg/mL
O=C(NNc1ccc(Cl)cc1)c1ccccn1; 0.98 µg/mL
O=C(NNc1ccc(F)cc1)c1nc(F)ccc1F; 0.98 µg/mL

Would you kindly look at the next entry?
Memo: O=C(NNc1cccc(Cl)c1)c1cnccn1 , reported MIC: 1.95 µg/mL
